pIC50: −log10 of the molar value.
The following compounds have recorded pIC50 on TIP60-KAT5 (Homo sapiens).
Sequence (Q92993 with tags, fused parts or gaps isoform Q92993-2): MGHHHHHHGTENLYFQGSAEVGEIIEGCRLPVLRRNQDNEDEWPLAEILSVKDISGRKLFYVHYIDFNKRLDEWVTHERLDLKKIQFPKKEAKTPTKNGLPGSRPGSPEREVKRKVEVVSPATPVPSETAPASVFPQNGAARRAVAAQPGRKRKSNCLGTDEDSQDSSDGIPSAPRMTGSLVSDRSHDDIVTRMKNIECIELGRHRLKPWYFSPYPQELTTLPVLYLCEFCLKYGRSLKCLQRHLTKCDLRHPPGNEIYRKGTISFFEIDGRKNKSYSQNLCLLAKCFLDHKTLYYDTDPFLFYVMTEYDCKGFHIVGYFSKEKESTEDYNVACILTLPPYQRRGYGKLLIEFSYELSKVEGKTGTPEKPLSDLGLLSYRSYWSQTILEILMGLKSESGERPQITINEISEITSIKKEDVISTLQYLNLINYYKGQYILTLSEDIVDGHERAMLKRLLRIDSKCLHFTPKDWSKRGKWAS

{"SMILES_NOTATION": "CCc1ccc(OC)c(S(=O)(=O)Nc2noc3c(C4CCCCC4)cccc23)c1", "QUALIFIER_SIGN": "=", "pIC50": 4.70}
{"SMILES_NOTATION": "CCc1ccc(OC)c(S(=O)(=O)Nc2noc3c(-c4cnn(C)c4)cccc23)c1", "QUALIFIER_SIGN": "=", "pIC50": 4.16}
{"SMILES_NOTATION": "O=S(=O)(Nc1noc2cccc(Cl)c12)c1cccc2scnc12", "QUALIFIER_SIGN": "=", "pIC50": 5.14}
{"SMILES_NOTATION": "O=S(=O)(Nc1noc2ccccc12)c1ccc(-c2ccccc2)cc1", "QUALIFIER_SIGN": "=", "pIC50": 3.91}
{"SMILES_NOTATION": "CCc1ccc(OC)c(S(=O)(=O)Nc2noc3c(CC)cccc23)c1", "QUALIFIER_SIGN": "=", "pIC50": 4.16}
{"SMILES_NOTATION": "COc1cccc(OC)c1S(=O)(=O)Nc1noc2c(-c3ccccc3)ccc(OC)c12", "QUALIFIER_SIGN": "=", "pIC50": 4.49}
{"SMILES_NOTATION": "CCc1ccc(OC)c(S(=O)(=O)Nc2noc3ccc(CC)c(Cl)c23)c1", "QUALIFIER_SIGN": "=", "pIC50": 5.20}
{"SMILES_NOTATION": "COCc1cc2onc(NS(=O)(=O)c3cccnc3)c2cc1C", "QUALIFIER_SIGN": "<", "pIC50": 3.90}
{"SMILES_NOTATION": "CCc1ccc(OC)c(S(=O)(=O)Nc2noc3ccc(CO)cc23)c1", "QUALIFIER_SIGN": "<", "pIC50": 3.90}
